Measured values drawn from patent US20160242416A1 for this set.

system: Zymoseptoria tritici; test: Test E: wheat leaf blotch, preventive spray on wheat seedlings; conditions: 50 ppm (asterisk); wheat leaf blotch; 100 = 100% disease control, 0 = no control
assayEndpoint: Test E rating (% disease control) (%)
Entry rule: numbers only, all in %.

Tell me measured Test E rating (% disease control) for OC(Cn1cncn1)(C1=NOC(c2ccccc2F)C1)c1ccccc1 (mixture of isomers) please.
0

Recall and state the measured Test E rating (% disease control) for OC(Cc1ccccc1)(Cn1cncn1)C1=NOC(c2ccc(Cl)cc2)C1 (single isomer, unassigned) .
62

Annotate the compound OC(Cn1cncn1)(C1=NOC(c2ccc(F)cc2)C1)c1ccccc1 (mixture of isomers) with its measured Test E rating (% disease control).
0

Answer with the recorded Test E rating (% disease control) for the compound listed here: CC(C)(C)C(O)(Cn1cncn1)C1=NOC(c2ccc(Cl)cc2)C1 (single isomer, unassigned) [Compound 133]
88

Consider the compound CC1(c2ccc(Cl)cc2)CC(C(O)(Cn2cncn2)c2ccc(Cl)cc2)=NO1 (single isomer, unassigned) [Compound 212] and give its recorded Test E rating (% disease control).
0

Return value of Test E rating (% disease control) for input OC(Cn1cncn1)(C1=NOC(c2ccc(Cl)cc2)C1)c1ccc(Cl)cc1 (single isomer, unassigned) [Compound 120] , no commentary.
8

Annotate the compound CC1(c2ccc(Cl)cc2)CC(C(O)(Cn2cncn2)c2ccccc2)=NO1 (single isomer, unassigned) [Compound 210] with its measured Test E rating (% disease control).
41

Look up and report measured Test E rating (% disease control) for this entry: CCC(O)(Cn1cncn1)C1=NOC(c2ccc(Cl)cc2)C1 (mixture of isomers)
0

Please supply the value of reported Test E rating (% disease control) for the item OC(Cn1cncn1)(C1=NOC(c2ccc(F)cc2)C1)c1ccc(F)cc1 (single isomer, unassigned) [Compound 119]
0

Indicate the recorded Test E rating (% disease control) value for this compound: OC(Cn1cncn1)(C1=NOC(c2ccc(Cl)cc2)C1)c1ccc(Oc2ccccc2)cc1 (single isomer, unassigned)
95

Answer with reported Test E rating (% disease control) of OC(Cn1cncn1)(C1=NOC(c2c(F)cccc2F)C1)c1ccccc1 (mixture of isomers)
18

Report measured Test E rating (% disease control); entry is OC(Cn1cncn1)(C1=NOC(c2ccc(Cl)cc2)C1)c1ccccc1 (mixture of isomers)
11

Let me know recorded Test E rating (% disease control) for OC(Cn1cncn1)(C1=NOC(c2ccc(Cl)cc2)C1)c1ccc(F)cc1F (single isomer, unassigned) [Compound 131] , thanks.
5

For the compound CC1(c2ccc(Cl)cc2)CC(C(O)(Cn2cncn2)c2ccccc2)=NO1 (single isomer, unassigned) [Compound 211] , report Test E rating (% disease control).
0

###

test system: Zymoseptoria tritici; assay: Test E: wheat leaf blotch, preventive spray on wheat seedlings; details: 10 ppm; wheat leaf blotch; 100 = 100% disease control, 0 = no control
assayEndpoint: Test E rating (% disease control) (%)
Value expressed in %; do not type the unit.

Please report the measured Test E rating (% disease control) for CCC(C)(C)C(O)(Cn1cncn1)C1=NOC(COc2ccc(Cl)cc2)C1 (single isomer, unassigned) [Compound 186]
66

Please supply the value of reported Test E rating (% disease control) for the item CC(C)(C)C(O)(Cn1cncn1)C1=NOC(CCc2ccc(Cl)cc2)C1 (single isomer, unassigned) [Compound 15]
19

Dear colleague, please send me the reported Test E rating (% disease control) for CC(C)(C)C(O)(Cn1cncn1)C1=NOC(c2cnccn2)C1 (single isomer, unassigned) [Compound 169] when you can.
4

Identify measured Test E rating (% disease control) associated with CC(C)(C)CC1CC(C(O)(Cn2cncn2)c2ccc(Cl)cc2)=NO1 (single isomer, unassigned) [Compound 75]
0

Give a short answer stating reported Test E rating (% disease control) for CC(C)(C)C(O)(Cn1cncn1)C1=NOC(COCc2ccccc2)C1 (single isomer, unassigned) [Compound 60] .
3

Query Test E rating (% disease control) for CC(C)(C)C(O)(Cn1cncn1)C1=NOC(Cc2ccc(Br)cc2)C1 (single isomer, unassigned) [Compound 52]
4

Could you please provide reported Test E rating (% disease control) for CS(=O)(=O)c1ccc(C2CC(C(O)(Cn3cncn3)c3ccc(Cl)cc3)=NO2)cc1 (single isomer, unassigned) [Compound 114] ? Thanks!
39
